tested system: recombinant neuraminidase (rNA) from B/Malaysia/2506/04 (influenza B virus B/Malaysia/2506/04)
Each entry below carries its reported Kd.

binder="recombinantly expressed 1F2 IgG1 (antibody, V domains shown) VH: QVHLQQSGPEVARPGASVKLSCKASGYTFTDYYLNWVKQRPRQGLEWIGQIHPGSTNTYYNEKFKGKATLTADKSSSTAYMQLSSLTFEDSAVYFCAISLGDGYYVYAMVCWGQGTAVTVSS VL: DIVMTQSQKFMSTSVGDRVSVTCKASQNVVTNVVWYQQKPGQSPKPLIYSASYRYSGVPDRFTGSGSGTDFTLTISNVQSEDLAEYCCQQYHSYPFTFGSGTKLEVK" reported_measurement="1050 pM"
binder="recombinantly expressed 4F11 IgG2b (antibody, V domains shown) VH: DVKLVESGGDLVKPGGSLKLSCAASGFTFSAYSMSWVRQTPERRLEWVATINTGGSFTYYPDSVKGRFTISRDNAKNTLYLQMSSLKSEDTAMYFCTRVSDYGNSAYFPYWGQGTLVIVFA VL: QVVLTQSPALISASPGEKVTMTCSASSNVNYMSWYQQRPRSSPKPWIYLTSKLASGVPPRFSGSGSGTSYSLTISSMEAEDVATYYCQQWSSDPQTFGGGTKVEIK" reported_measurement="2.98 pM"
binder="recombinantly expressed 4F11 IgG2a (antibody, V domains shown) VH: DVKLVESGGDLVKPGGSLKLSCAASGFTFSAYSMSWVRQTPERRLEWVATINTGGSFTYYPDSVKGRFTISRDNAKNTLYLQMSSLKSEDTAMYFCTRVSDYGNSAYFPYWGQGTLVIVFA VL: QVVLTQSPALISASPGEKVTMTCSASSNVNYMSWYQQRPRSSPKPWIYLTSKLASGVPPRFSGSGSGTSYSLTISSMEAEDVATYYCQQWSSDPQTFGGGTKVEIK" reported_measurement="3.36 pM"

Field: next binder
In: Please give the documented Kd of recombinantly expressed 4F11 IgG1 (antibody, V domains shown) VH: DVKLVESGGDLVKPGGSLKLSCAASGFTFSAYSMSWVRQTPERRLEWVATINTGGSFTYYPDSVKGRFTISRDNAKNTLYLQMSSLKSEDTAMYFCTRVSDYGNSAYFPYWGQGTLVIVFA VL: QVVLTQSPALISASPGEKVTMTCSASSNVNYMSWYQQRPRSSPKPWIYLTSKLASGVPPRFSGSGSGTSYSLTISSMEAEDVATYYCQQWSSDPQTFGGGTKVEIK
Out: 8.91 pM
